Where do the numbers come from? From PubChem BioAssay.

system: PRMT1 (protein arginine N-methyltransferase 1); assay: small molecules binding arginine methyltransferase PRMT1 – biochemical, small-molecule microarray, 635 nm fluorescence, primary screen (AID 1088); conditions: higher = more signal;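 note: binding of Prmt1 protein to compounds spotted on small-molecule microarray slides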
result.type: composite z-score

- compound: "CN(C)CCCCCCNC(=O)[C@@H]1C[C@@H]2C(=O)NCC(=O)N2[C@@H]1c1ccc(O)cc1"
  reported: 1.53
- compound: "COc1ccc(C#Cc2ccc3c(c2)[C@]2(C(=O)N3)[C@H](C(N)=O)[C@H]3C(=O)O[C@H](c4ccccc4)[C@H](c4ccccc4)N3[C@@H]2c2ccc(O)cc2)cc1"
  reported: 1.56
- compound: "CCCCCCC#C[Si](O[C@H](c1ccccc1)c1cn(Cc2cccc(Cl)c2)nn1)(C(C)C)C(C)C"
  reported: 1
- compound: "C=C(COC)C(=O)CC[C@H](OC(=O)c1ccccc1-c1ccccc1C(=O)O)c1ccc(CO)o1"
  reported: 1.56
- compound: "CCCC=C(CCC)[C@@H](NC(=O)Cc1ccccc1)c1ccc(C(=O)OC)cc1"
  reported: 0.658
- compound: "CCCN1C(=O)[C@@H]2Cc3c([nH]c4ccccc34)[C@@H](c3cccc(O)c3)N2C1=O"
  reported: 0.213
- compound: "COC(=O)[C@H]1N=C(c2ccc(OCCCO)cc2)O[C@H]1c1ccccc1CN=[N+]=[N-]"
  reported: 0.943
- compound: "NC(=O)[C@H]1[C@@H]2C(=O)O[C@@H](c3ccccc3)[C@@H](c3ccccc3)N2[C@@H](c2ccc(O)cc2)[C@]12C(=O)Nc1ccc(C#CC3(O)CCCCCC3)cc12"
  reported: 1.53
- compound: "CC(C)CCC[C@@H](C)[C@H]1CC[C@@]2(C)C3=C(CC[C@]12C)[C@@]1(C)CC[C@H](OC(=O)c2ccc(N)cc2)C(C)(C)C1CC3 (stereo not given in full)"
  reported: 0.68
- compound: "C#CCOC(=O)N[C@H](C=CCCCC)c1ccccc1"
  reported: -0.893
- compound: "CC1(C)[C@@H]2CC(C(O)C3C=CC4C(=O)N(c5ccccc5)C(=O)C4N3Nc3ccccc3F)=C[C@@H]1C2 (stereo not given in full)"
  reported: 1.53
- compound: "C=C(C)[C@@H]1CC=C(C(O)C2C=CC3C(=O)N(C4CCCCC4)C(=O)C3N2Nc2ccc(OC)cc2)CC1 (stereo not given in full)"
  reported: 1.55
- compound: "Cc1ccc(S[C@]2(C(=O)NCc3ccccc3)CC(=O)N(C3Cc4ccccc4C3)[C@@H]2c2ccc(CO)cc2I)cc1"
  reported: 1.19
- compound: "O=C1O[C@H](c2ccccc2)[C@H](c2ccccc2)N2[C@H]1[C@@H](C(=O)N1CCCCCCC1)[C@]1(C(=O)Nc3ccc(C#CCCO)cc31)[C@H]2c1ccc(OCCO)cc1"
  reported: 1.56
- compound: "CC(C)C[C@@H]1NC(=O)[C@@H]2C[C@H](C(=O)NCc3ccc(F)cc3)[C@H](c3ccc(O)cc3)N2C1=O"
  reported: 1.43

###

system: Inhibin beta A chain (activin A); assay: small molecules binding activin A – biochemical, small-molecule microarray, 635 nm fluorescence scan, primary screen (AID 1107); settings: INHBA, higher = more signal;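 note: mouse activin A protein probed at 4.33 µg/mL on printed slides; score merges bound-protein fluorescence near 667 nm with spot signal-to-noise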
# composite z-score values compiled below
result.type: composite z-score

- compound: "C=CCOC(=O)[C@@H]1[C@H]2C(=O)O[C@H](c3ccccc3)[C@H](c3ccccc3)N2[C@H](c2ccc(OCCOC(=O)[C@@H]3C[C@@H]4C(=O)N[C@@H](CCCCNC(C)=O)C(=O)N4[C@@H]3c3ccc(O)cc3)cc2)[C@@]12C(=O)Nc1ccc(I)cc12"
  reported: 0.499
- compound: "Cc1ccc(C(C)CC(O)C2C=CC3C(=O)N(Cc4ccccc4)C(=O)C3N2n2cnnc2)o1 (stereo not drawn)"
  reported: 1.09
- compound: "CC[C@@H]1[C@@H]2C3C(=O)N(CC)C(=O)C3CC(=O)[C@@H]2[C@H](c2ccc(C)cc2)N1S(=O)(=O)c1ccc(C)cc1 (stereo partly drawn)"
  reported: 0.241
